# protocol_details: in vivo
# measurement_conditions: male, BALB/c, mouse, in vivo, ip, 0.1 mg/kg, half-life, single intraperitoneal administration 0.1 mg/kg; mice
# Protocol: Pharmacokinetics and CMV inhibition in mice. […] The dosing solution was prepared in saline with a dosing volume of 10 mL/kg. Blood and tissue samples including liver, lung and spleen were collected at 0, 0.083, 0.25, 0.5, 0.75, 1, 2, 3, 4, 7, 24, 30, 48, 72 and 96 hr. […] Pharmacokinetic parameters (Cmax, Tmax, AUC and t1/2) were calculated with a non-compartmental approach using the Pharsight WinNonLin software (Ver. 6.4). […]
Counter-ions that a name gives are not always drawn.
readout_name: half-life (h)
Answers are plain numbers, in h.

Request: So what's the measured half-life for this one? CC[C@H]1CN2CCc3cc(OC)c(OC)cc3[C@@H]2C[C@@H]1C[C@H]1NCCc2cc(OC)c(OC)cc21 [emetine, emetine dihydrochloride hydrate]
Response: 32
